Test system: ACHN renal
Experiment: NCI-60 one-dose screen, 48 h
Details: 10 µM unless noted
This is part of a sample that, as a whole, favours compounds with a hit. Of some 83,000 tested, about 20% had one in any assay. The source made the active and inactive calls. Rule for the calls: active = growth percent below 10; inactive = the rest.
Response enum: True = active, False = inactive

Could you kindly confirm the outcome this assay logged for O=C1c2c(c3c4cccnc4[nH]c3c3ccc4ccccc4c23)C(=O)N1CCN1CCNCC1 ? False

Identify the outcome logged in this assay for the molecule shown: COc1ccc2c(C3=C(c4cn(C)c5ccccc45)C(=O)NC3=O)coc2c1 False

Kindly provide the recorded test outcome for the following molecule: CC[C@]12C=CCN3CC[C@]4(C(=C(C(=O)OC)C1)Nc1cc5c(cc14)[C@@H]1[C@H](O5)[C@@H](O)[C@@]4(CC)CC(C(=O)OC)=C5Nc6cc(OC)ccc6[C@@]56CCN1[C@@H]46)[C@@H]32 True

Per the assay record, what outcome was assigned to CC(=O)c1sc(Nc2cccc(Nc3nc(C)c(C)s3)c2)nc1C ? False

---

Please go through the items and note down their growth.
Tested on: KM12 colon
Test: NCI-60 one-dose screen, 48 h (100 = growth as untreated, 0 = no growth, -100 = all killed)
Settings: 10 µM unless noted
This is part of a sample that, as a whole, favours compounds with a hit. Of some 83,000 tested, about 20% had one in any assay.
Express the result in % but write the number alone.

Return reported growth; argument: Cn1cc(-c2nnc(N)nc2-c2cn(C)c3ccc(F)cc23)c2cc(F)ccc21 90.8

Quick one: growth of CS(=O)(=O)c1ccc(-c2nn(-c3ccccc3)cc2/C=C/C(=O)c2ccc(Br)cc2)cc1 ? 80

Given the entry C/C(=C(/c1ccc(O)cc1)c1ccc(OCCN2CCCC2)cc1)c1ccc(Cl)cc1 , report its measured growth. 46.5

Reported growth for O=C1C[C@@H](c2ccccc2)Oc2c(Cc3ccccc3O)c(O)c(Cc3cc(Cc4cc(Cc5ccccc5O)ccc4O)ccc3O)c(O)c21 : what is it? 92.8

Given COc1ccc2c(c1)c(-c1nnc(N)nc1-c1cn(C)c3ccccc13)cn2C , state its recorded growth. 94.6

Which value of growth has been reported for C#C[C@]1(O)CC[C@H]2[C@@H]3CC=C4c5sc(-c6ccc(OC)cc6)nc5CC[C@]4(C)[C@H]3CC[C@@]21C in the records? 60

// query growth value for entry O=C(Nc1cccc(-c2nc(-c3ccc(NC(=O)c4cccnc4)cc3Cl)no2)c1)Nc1ccc(NC(=O)C2CC2)c(C(F)(F)F)c1 -63.9

What measured growth goes with CC1CCc2c(sc3nc(SCC(=O)N/N=C/c4ccc(Cl)cc4)n(-c4ccccc4)c(=O)c23)C1 (centres undefined) ? 103

Value lookup for growth; key = Nc1nc(N)c2c(n1)NC(c1ccc(Cl)cc1)CC(c1ccc(Nc3nc(NCCO)nc(Nc4ccc(Cl)cc4)n3)cc1)=N2 (centres undefined) 11.5

Requested read-out: growth. Entry: CC(C)Sc1nc(NC2CC2)c(C#N)c(-c2ccccc2)n1 97.5

Please look up its growth: CC1=CC(=O)CC(C)(C)[C@@]1(O)/C=C/C(C)=C\C(=O)O 3.82

# input compound: C=CCn1c(SCC(=O)Nc2ccc(OC)cc2)nnc1-c1ccc(Cl)cc1 ; wanted: its growth 92.4

Any idea what growth was measured for O=C(O)c1ccc(-n2cc(CNc3ccc(F)cc3)c(-c3ccc(C(F)(F)F)cc3)n2)cc1 ? 78.7

Bench note: what growth did COc1ccc(NC(=O)Cn2cc(CN3C(=O)c4ccc([N+](=O)[O-])cc4C3=O)nn2)cc1 show? 106

Give its growth value. Item: Cn1cc(-c2nn3cc(-c4ccncc4)nc3s2)c2cc(Cl)ccc21 56.5

I'd like to know its growth. The compound in question is CCNC(=NCCCN(C)C)N/C(N)=N/c1nc2ccccc2s1 93.9

What does the data say about its growth? Entry: CCOC(=O)c1c(NC(=O)c2cccc(C(F)(F)F)c2)sc2c(CN3CCN(C)CC3)c(O)ccc12 -75.2

Could you tell me which growth is on file for COC1=C(c2ccccc2)C(=O)C(OC)=C(c2ccccc2)C1=O ? 98.6

Please report the recorded growth for Cc1ccc(Nc2ncnc3c2c(C)nn3-c2ccc([N+](=O)[O-])cc2)cc1 . 81.2

---

Test system: NCI/ADR-RES ovarian
Assay: NCI-60 one-dose screen, 48 h
Settings: 10 µM unless noted
Compounds without any hit were thinned out: in the full panel of roughly 83,000, 20% have a hit. Activity calls are given as the source filed them. The calls were made as follows: active = growth percent below 10; inactive = the rest.
Choose one outcome from this list and give only that: 1 (yes) (active), 0 (no) (inactive)

State the result this test recorded for Cc1nn(-c2ccccc2)c2nc(CCl)[nH]c(=O)c12 . 0 (no)

// outcome(item) with item = Cc1ccc(-c2cc3nc(C(Cl)Cl)nc(-c4ccccc4)n3n2)cc1 0 (no)

Test call, this compound: Oc1ccc(CSc2nnc(-c3ccc(Oc4ccccc4)cc3)n2-c2ccccc2)c2cccnc12 1 (yes)

Give the logged outcome of this assay for the following compound: C#CCOc1ccccc1C(Nc1ccccc1)c1nnnn1C1CCCCC1 (centres undefined) 0 (no)

Please share the test call associated with COc1cc(/C=C/C(=O)c2ccc(N3CCN(C)CC3)cc2)ccc1F . 0 (no)

Could you check what this test reported for O=C(CN1CCN(c2cc(=O)n(-c3ccccc3)c3ccccc23)CC1)Nc1ccc([N+](=O)[O-])cc1 ? 0 (no)

Call for entry CCNC(=O)Oc1ccc(/C(=C(/C)c2ccccc2)c2ccc(OCCN3CCCC3)cc2)cc1 : 0 (no)

# outcome recorded in this test, key = COC[C@]12CC[C@@H](C)[C@H](C)[C@H]1C1=CC[C@@H]3[C@@]4(C)CCCNC(C)(C)[C@@H]4CC[C@@]3(C)[C@]1(C)CC2 0 (no)

Which outcome was entered for the compound O=C(O)CNS(=O)(=O)c1ccc(Oc2ccc(S(=O)(=O)NCC(=O)O)cc2)cc1 in this test? 0 (no)

---

Tested on: PC-3 prostate
Test: NCI-60 one-dose screen, 48 h (100 = growth as untreated, 0 = no growth, -100 = all killed)
Settings: 10 µM unless noted
The panel holds about 83,000 compounds, 20% with a hit somewhere; the sample as a whole holds those more often.
PROPERTY LABEL: growth (%)
Give the value, in units of %, as a plain number.

Which measured growth value corresponds to CC1OC(O[C@@H]2[C@H](O)C(CO)OC(O[C@H]3COC(O[C@H]4CC[C@]5(C)[C@H]6CC[C@]78OC[C@@]9(CC[C@](C)(C=O)C[C@H]97)C(=O)C[C@@]8(C)[C@]6(C)CC[C@H]5C4(C)C)[C@@H](O)[C@@H]3O)[C@H]2OC2OC[C@@H](O)[C@@H](O)[C@@H]2O)[C@@H](O)[C@@H](O)[C@H]1O (stereo partly drawn) ? 81.4

For CCCCCCNC(=O)Oc1ccc(/C(=C(/C)c2ccc(Cl)cc2)c2ccc(OCCN3CCCC3)cc2)cc1 , what is its reported growth? 37.5

Suppose we examine the compound O=C1c2c(c3c4cc(O)ccc4oc3c3[nH]c4ccccc4c23)C(=O)N1O ; what growth value has been reported? 12.8

---

Test system: HCT-15 colon
Test: NCI-60 one-dose screen, 48 h (100 = growth as untreated, 0 = no growth, -100 = all killed)
Settings: 10 µM unless noted
This is part of a sample that, as a whole, favours compounds with a hit. Of some 83,000 tested, about 20% had one in any assay.
Decide by growth: equal to or exceeding 90% means Fulfilled, less means Not fulfilled.

Quick check, growth >= 90%? Cc1ccc(NC(=O)c2ccc(CN3CCN(C)CC3)c(I)c2)cc1Oc1ccc(-c2[nH]nc3ncnc(N)c23)cc1 Not fulfilled

Exam item: decide whether the reported growth for CCNC(=NCCCN(C)C)N/C(N)=N/c1nc2ccccc2s1 is at least 90%. Not fulfilled

Given COc1ccc(-c2nc3cc(Cl)c(Cl)cc3n2CC(=O)N=Nc2c(O)[nH]c3ccc(Cl)cc23)cc1 , state whether its growth is at least 90%. Not fulfilled

Quick check, growth >= 90%? C#C[C@]1(O)CC[C@H]2[C@@H]3CC=C4c5sc(Nc6nc(C)cc(OC)n6)nc5CC[C@]4(C)[C@H]3CC[C@@]21C Not fulfilled

Given COc1cc2c3c(n(CCCN4CCCC4)c(=O)c2cc1OC)-c1cc2c(cc1C3=O)OCO2 , state whether its growth is at least 90%. Not fulfilled

Given COc1ccc([C@H]2[C@H](O)C(=O)N2c2cc(OC)c(OC)c(OC)c2)cc1Cl , state whether its growth is at least 90%. Not fulfilled

Would you say Cc1cc(NS(=O)(=O)c2ccc(-c3cnc(C4CC4)o3)cc2)ccc1I shows growth at minimum 90%? Not fulfilled

Does the reported growth for O=S(=O)(Nc1ccc(C2CC2)cc1)c1ccc(-c2cnc(C3CC3)o2)cc1 fall at or above the 90% mark? Not fulfilled

Decide: growth of COc1ccc(/C=C/C(=O)c2nnn(-c3ccc(Br)cc3)c2C)cc1OC >= 90%? Not fulfilled

Textbook exercise: given the entry O=C(Nc1ccc(-c2nc(-c3cccc(O)c3)c(-c3ccnc(Br)c3)[nH]2)cc1)c1ccccc1 , state whether its growth is greater than or equal to 90%. Not fulfilled

Textbook exercise: given the entry O=C(NCCNc1cc(-c2cn(-c3ccccc3)nc2-c2cccc(O)c2)ccn1)Nc1ccc(Cl)c(C(F)(F)F)c1 , state whether its growth is greater than or equal to 90%. Not fulfilled

Record COc1cc(-c2noc(C[C@@H](NC(=O)OCc3ccccc3)C(C)C)n2)cc(OC)c1OC ; criterion: growth no lower than 90%. Met? Fulfilled

Does growth meet or surpass 90% for Cn1nc(Nc2ccccc2)c(C(=O)NN)c1N ? Fulfilled

Given COc1ccccc1/C=C/C(=O)c1nnn(-c2ccc(C(=O)O)cc2)c1C , state whether its growth is at least 90%. Not fulfilled

Check this compound for growth at or above 90%: CCN(CC)CCN1C(=O)c2c(c3c4cccnc4[nH]c3c3ccc4ccccc4c23)C1=O Not fulfilled

Does growth meet or surpass 90% for COc1ccc([C@H]2[C@H](O)C(=O)N2c2cc(OC)c(OC)c(OC)c2)cc1 ? Not fulfilled

For this compound, is measured growth 90% or higher? COc1cc(CNC(=O)Cc2ccccc2[N+](=O)[O-])ccc1OCC(=O)NO Fulfilled

Does COc1cc(/C=N/n2cnc3oc(-c4ccccc4)cc3c2=N)cc(CN2CCOCC2)c1O have a reported growth of at least 90%? Not fulfilled

# bool: growth of COc1ccc(C(=O)c2c(N)c(C#N)cn2-c2cccc(OC)c2)cc1 >= 90% Not fulfilled

Is reported growth greater than or equal to 90% here: Nc1nc(N)c2c(n1)NC(c1ccccc1)CC(c1ccc(Nc3nc(NCCO)nc(Nc4ccc(Cl)cc4)n3)cc1)=N2 (configuration not stated) Not fulfilled

Reported growth reaches at least 90% for CC(=O)Nc1ccc(C)c(Nc2cc(-c3ccc(-n4cccn4)cc3)[nH]n2)c1 ? Not fulfilled

Quick check, growth >= 90%? O=C1CC2(CCOCC2)Oc2ncccc21 Not fulfilled

Can N#C/C(=C\c1ccc(N2CCCCC2)cc1)C(=O)Nc1sc2c(c1C#N)CCC2 be said to have growth at or above 90%? Fulfilled

I'd appreciate it if you could say whether O=C(O)c1ccc(-n2cc(CNc3ccc(F)cc3)c(-c3ccc(C(F)(F)F)cc3)n2)cc1 has growth at least equal to 90%. Not fulfilled

Reported growth reaches at least 90% for O=C(CSc1nnc(-c2ccc(Cl)cc2)n1-c1ccccc1)Nc1ccc(F)cc1 ? Fulfilled

Entry C/C(=C(/c1ccc(O)cc1)c1ccc(OCCN(C)C)cc1)c1ccc(Cl)cc1 : is its growth no less than 90%? Not fulfilled

State whether the measured growth reaches 90%, counting equality as reaching it, for O=C1Nc2cc(OC(F)(F)F)ccc2Oc2ccc(-c3ccnc(N4CC[C@H](O)C4)c3)cc21 Not fulfilled

// inclusive: growth at least 90%? input: COC1=C(c2ccccc2)C(=O)C(OC)=C(c2ccccc2)C1=O Fulfilled

Given N/C(=N\OC(=O)CSc1nc2ccccc2s1)c1ccc2ccccc2c1 , state whether its growth is at least 90%. Fulfilled

I'd appreciate it if you could say whether NC(N)=NS(=O)(=O)c1ccc(N=NC2C(=O)NN(c3ccccc3)C2=O)cc1 (configuration not stated) has growth at least equal to 90%. Fulfilled

Form field: growth at least 90%? Entry: CC1OC(O[C@@H]2[C@H](O)C(CO)OC(O[C@H]3COC(O[C@H]4CC[C@]5(C)[C@H]6CC[C@]78OC[C@@]9(CC[C@](C)(C=O)C[C@H]97)C(=O)C[C@@]8(C)[C@]6(C)CC[C@H]5C4(C)C)[C@@H](O)[C@@H]3O)[C@H]2OC2OC[C@@H](O)[C@@H](O)[C@@H]2O)[C@@H](O)[C@@H](O)[C@H]1O (some centres not stated) Fulfilled

Reported growth reaches at least 90% for Cc1occc1-c1nc2s/c(=C\c3cn(-c4ccccc4)nc3-c3ccccc3)c(=O)n2n1 ? Fulfilled

Entry COc1ccc(/C=N\NC(=O)c2ccc3nc(-c4ccc(Br)cc4)[nH]c3c2)cc1 : is its growth no less than 90%? Not fulfilled

Hi, just wondering whether O=C(COc1ccc(C2SCC(=O)N2c2ccc(F)cc2)cc1)c1ccccc1 (configuration not stated) shows growth of 90% or higher. Fulfilled

State whether the measured growth reaches 90%, counting equality as reaching it, for COc1cc(-c2nc(SCc3ccc(C)cc3)[nH]c(=O)c2C#N)ccc1OCc1ccccc1 Fulfilled

Kindly determine if growth recorded for Cc1ccc(-c2cc(-c3cccc4ccccc34)n3c(n2)nc2ccccc23)cc1 is above or exactly 90%. Not fulfilled

Every entry's value here was drawn from PubChem BioAssay (NCI).
